meta.source: paper PMC5376981

- MEASURED ON: native VAR2CSA on FCR3-CSA infected erythrocytes (Plasmodium falciparum FCR3, UniProt Q6UDW7, strain)
- EXPERIMENTAL PROTOCOL: flow cytometry on cells

BINDER | binding result
VHH889 (VHH) VHH: QVQLQESGGGLVQAGGSLRLSCAASGRSFSSYAMGWFRQAPGKEREFVATITWSGGSTYYADSVKGRFTISGDSAENTVYLQMNSLKPEDTAVYYCAADETSAPLYRAYEAQYDYWGQGTQVTVSS | binds
VHH879 (VHH) VHH: QVQLQESGGGLVQAGGSLRLSCAASGRTFSDYAMGWFRQAPGKDREFVAAISWSGDRTYYADSVKGRFTISRDNAKNTVYLQMNSLKPEDTAVYHCAANDLMVPELLMPRVESYDYWGQGTQVTVSS | binds
VHH880 (VHH) VHH: QVQLQESGGGLVQAGGSLRLSCAASGRTFSDYAMGWFRQAPGKDREFVAAISWSGDRTYYADSVKGRFTISRDNAENTVYLQMNSLKPEDTAVYHCAANDLMVPELLMPRVESYDYWGQGTQVTVSS | binds
